Record form. Attribute: melting point. Fill in for each entry.

Example compounds with recorded melting point:
CC(NC(=O)/C=C/c1cc(F)ccc1F)c1ccc2c(c1)CCCN2 (centres unmarked); 55 to 58 °C
CC(NC(=O)/C=C/c1cc(F)cc(F)c1)c1ccc2c(c1)CCCN2 (centres unmarked); 180 °C (dec.)
CCN1CCCc2ccc(C(C)NC(=O)/C=C/c3ccccc3)cc21 (racemic); 50 to 52 °C
CC(NC(=O)/C=C/c1ccccc1)c1ccc2c(c1)NCCC2 (racemic); 144 to 146 °C
CC(NC(=O)/C=C/c1cc(F)ccc1F)c1ccc2c(c1)N(C)CCC2 (racemic); 52 to 55 °C
CC(NC(=O)/C=C/c1ccccc1F)c1ccc2c(c1)N(C)CCC2 (racemic); 60 to 63 °C
CC(NC(=O)/C=C/c1ccc(F)c(F)c1)c1ccc2c(c1)CCCN2 (centres unmarked); 156 °C (dec.)
CCN1CCCc2ccc(C(C)NC(=O)/C=C/c3cc(F)ccc3F)cc21 (racemic); 50 to 53 °C

Items follow; give melting point for each.
1. CC(NC(=O)/C=C/c1cccc(F)c1)c1ccc2c(c1)NCCC2 (racemic)
2. CC(NC(=O)/C=C/c1ccc(F)cc1)c1ccc2c(c1)NCCC2 (racemic)
3. CC(NC(=O)/C=C/c1cccc(F)c1)c1ccc2c(c1)N(C)CCC2 (racemic)
4. CC(NC(=O)/C=C/c1ccc(F)cc1)c1ccc2c(c1)CCCN2 (centres unmarked)
5. CC(=O)N1CCCc2ccc(C(C)NC(=O)/C=C/c3ccccc3)cc21 (racemic)
6. CC(NC(=O)/C=C/c1ccccc1)c1ccc2c(c1)CCCN2 (centres unmarked)

Given back:
1. 130 to 132 °C (dec.)
2. 125 to 127 °C (dec.)
3. 60 to 63 °C
4. 140 to 143 °C
5. 65 to 68 °C
6. 64 to 67 °C
